Measured MIC values are reported for all entries that follow.
Tested on: Pseudomonas aeruginosa
Experiment: Antimicrobial activity against SHV-12 ESBL producing Pseudomonas aeruginosa isolate 2201 isolated from burn patient by broth microdilution method
Assay type: functional

Mol: CO/N=C(\C(=O)N[C@@H]1C(=O)N2C(C(=O)O)=C(COC(C)=O)CS[C@H]12)c1csc(N)n1
Unit Annotation: µg/mL
MIC: 16
--
Mol: CCN1CCN(C(=O)N[C@@H](C(=O)N[C@@H]2C(=O)N3[C@@H]2SC(C)(C)[C@@H]3C(=O)O)c2ccccc2)C(=O)C1=O
Unit Annotation: µg/mL
MIC: 16
--
Mol: CC(C)(O/N=C(\C(=O)N[C@@H]1C(=O)N2C(C(=O)[O-])=C(C[n+]3ccccc3)CS[C@H]12)c1csc(N)n1)C(=O)O
Unit Annotation: µg/mL
MIC: 2
--
Mol: CC1(C)S[C@@H]2[C@H](NC(=O)[C@H](C(=O)O)c3ccsc3)C(=O)N2[C@H]1C(=O)O
Unit Annotation: µg/mL
MIC: 16
--
Mol: NCC[C@H](O)C(=O)N[C@@H]1C[C@H](N)[C@@H](O[C@H]2O[C@H](CN)[C@@H](O)[C@H](O)[C@H]2O)[C@H](O)[C@H]1O[C@H]1O[C@H](CO)[C@@H](O)[C@H](N)[C@H]1O
Unit Annotation: µg/mL
MIC: 4
